Just for reference, ChEMBL document CHEMBL4689842 is where these values come from.

Tested on: Fibroblast
Assay Info: Multiplex assay against human fibroblast
Assay type: toxicity, cell-based
Run Parameters: 24 h, 10 µM, compound concentration 10 uM, replicate 1

{"Compound": "COc1cccc2cc(-c3nc([C@H]4CC[C@H](C(=O)O)CC4)n4ncnc(N)c34)[nH]c12", "Tested On": "Fibroblast", "Population Healthy Nuclei (%)": 64}
{"Compound": "CNC(=O)c1ccc(Nc2nc(OC3CCCC3)c3c(-c4ccc5nc(C)oc5c4)c[nH]c3n2)c(OC)c1", "Tested On": "Fibroblast", "Population Healthy Nuclei (%)": 52}
{"Compound": "COc1cc(N2CCN(C)CC2)ccc1Nc1ncc2c(n1)N(C)c1ccccc1C(=O)N2C", "Tested On": "Fibroblast", "Population Healthy Nuclei (%)": 52}
{"Compound": "S=C(NCCCc1c[nH]cn1)NCCCN(Cc1ccc(Cl)c(Cl)c1)c1ccc(Br)cn1", "Tested On": "Fibroblast", "Population Healthy Nuclei (%)": 15}
{"Compound": "CCN1CCN(Cc2ccc(Nc3ncc(F)c(-c4cc(F)c5nc(C)n(C(C)C)c5c4)n3)nc2)CC1.CS(=O)(=O)O", "Tested On": "Fibroblast", "Population Healthy Nuclei (%)": 16}
{"Compound": "CN1CCN(C(=O)C(C)(C)c2ccc(C(=O)Nc3cn4cc(-c5cc(C(C)(C)C)cc(C(C)(C)C)c5)ccc4n3)cc2)CC1", "Tested On": "Fibroblast", "Population Healthy Nuclei (%)": 54}
{"Compound": "CCn1cc(-c2ccnc3[nH]c(-c4cccc(CN(C)C)c4)cc23)c(-c2ccc(NC(=O)N(C)C)cc2)n1", "Tested On": "Fibroblast", "Population Healthy Nuclei (%)": 51}
{"Compound": "CN(C)C(=O)C(CCN1CCC(O)(c2ccc(Cl)cc2)CC1)(c1ccccc1)c1ccccc1.Cl [LOPERAMIDE HYDROCHLORIDE]", "Tested On": "Fibroblast", "Population Healthy Nuclei (%)": 33}
